Quick reference for pKd among some compounds
Molecular target: DLL3 (Homo sapiens, UniProt Q9NYJ7)
Experiment: SPR KD, biotinylated human DLL3 on streptavidin chip (Table 8)
Design: biotin (biotinylated)
Settings: biotinylated human DLL3 on streptavidin sensor chip, 25° C., 1:1 binding model; read-out: SPR KD
pKd: −log10 of the molar value. *1 amine or outer side, *2 acyl side, *3 side chain or, on linkers, in order; H or OH if unused. Where a SMILES comes first, the peptide text is derived from it. Bridges are numbered along the chain shown (N, C = ends). [ ]: non-standard residue; d: D form. The star is where a group is joined. DOTA = O=C(O)CN1CCN(CC(=O)O)CCN(CC(=O)*)CCN(CC(=O)O)CC1; 1Nal = N[C@@H](Cc1cccc2ccccc12)C(=O)O; 2Nal = N[C@@H](Cc1ccc2ccccc2c1)C(=O)O; Gly(4-THP) = N[C@H](C(=O)O)C1CCOCC1; X4 = O=C(C(CC1CCNCC1)N[*:1])[*:2]

CC(=O)N[C@@H](Cc1c[nH]c2ccccc12)C(=O)N[C@H](C(=O)N[C@H](C(=O)N[C@H]1CSSC[C@@H](C(=O)N[C@@H](Cc2c[nH]c3ccccc23)C(=O)N2CCC[C@H]2C(N)=O)NC(=O)[C@H](CC(=O)O)NC(=O)[C@H](CCCCNC(=O)CN2CCN(CC(=O)O)CCN(CC(=O)O)CCN(CC(=O)O)CC2)NC(=O)[C@H](Cc2ccc3ccccc3c2)NC(=O)[C@H](CC(N)=O)NC(=O)C(CC2CCNCC2)NC1=O)C1CCOCC1)[C@@H](C)O (some centres unmarked) [compound 319] (Ac-WT[Gly(4-THP)]C[X4]N[2Nal]K(DOTA)DCWP-NH2; disulfide 4-10) | > 9.00

Please examine the following record next.
Name the recorded pKd for CC[C@H](C)[C@H](NC(=O)[C@@H](NC(=O)[C@H](Cc1cccc2ccccc12)NC(C)=O)[C@@H](C)O)C(=O)N[C@H]1CSSC[C@@H](C(=O)N[C@@H](Cc2c[nH]c3ccccc23)C(=O)N2CCC[C@H]2C(N)=O)NC(=O)[C@H](CC(=O)O)NC(=O)[C@H](Cc2cnc[nH]2)NC(=O)[C@H](Cc2c[nH]c3ccccc23)NC(=O)[C@H](CC(N)=O)NC(=O)[C@H](CC(N)=O)NC1=O [compound 25] (Ac-[1Nal]TICNNWHDCWP-NH2; disulfide 4-10) .
7.00 to 8.00
